B1: Arginine-glutamic acid dipeptide repeats protein, residues 502 to 543; numbered along this chain, Q9P2R6 (parent)
chain: LKGYACRHCFTTTSKDWHHGGRENILLCTDCRIHFKKYGELP

Variants of: B1
Test: abundance fitness (aPCA) (normalised: wild type 0, dead -1); higher = more abundant; growth selection in yeast, the domain comes from the species named
Conditions: Homo sapiens
READOUT: abundance fitness

The cases that follow already have their abundance fitness on record.
*Q* Consider the variant shown here: K15A What is its recorded abundance fitness?
*A* -0.107

*Q* How about this variant: F10V
*A* -0.331

*Q* How about this variant: C31H
*A* -0.733

From here, focus on the item given below.
*Q* Consider the variant shown here: C31V What is its recorded abundance fitness?
*A* -1.08
